Reference source: ChEMBL document CHEMBL4665666

# TARGET UNDER TEST: cathepsin B (Rattus norvegicus, UniProt P00787)
# Sequence (P00787 whole entry): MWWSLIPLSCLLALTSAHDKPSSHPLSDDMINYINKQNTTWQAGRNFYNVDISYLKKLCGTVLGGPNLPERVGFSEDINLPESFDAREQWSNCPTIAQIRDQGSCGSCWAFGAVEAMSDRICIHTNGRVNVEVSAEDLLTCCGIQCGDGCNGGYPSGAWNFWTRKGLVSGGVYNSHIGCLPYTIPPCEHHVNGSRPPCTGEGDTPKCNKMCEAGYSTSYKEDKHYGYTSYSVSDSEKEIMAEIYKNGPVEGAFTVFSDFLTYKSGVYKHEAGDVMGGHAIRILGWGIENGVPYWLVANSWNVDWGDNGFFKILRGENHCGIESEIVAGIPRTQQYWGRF
# TEST SUMMARY: Inhibition of rat cathepsin B at 100 uM using Z-FR-AMC as substrate preincubated for 5 mins followed by substrate addition and measured after 15 mins by microplate reader based assay relative to control
# PROTOCOL CONDITIONS: probe Z-FR-AMC

>  <GIVEN SMILES>
Cl.Cl.Clc1cc(Br)ccc1-c1ccc(CNCC2CCNCC2)o1

>  <inhibition at 0.25 h, 100 µM (%)>
3.2

$$$$
>  <GIVEN SMILES>
Cn1c(=O)n(C)c2cc(CNCCNc3ccnc4cc(Cl)ccc34)ccc21

>  <inhibition at 0.25 h, 100 µM (%)>
11.7

$$$$
